- Assay Remarks: in vitro
- Measurement Conditions: human, hela cells, % viability
Task for the reader: assign each of the following compounds its reported viability at 28.5 h, 10 µM.
Could you give me the number in %? Just the number is fine.

Consider the compound shown here: O=C(CO)N1CC2(CCN(CCO)CC2)c2ccccc21 [CBK131507] What is its recorded viability at 28.5 h, 10 µM?
79.7

Also check CC(=O)N1CCc2c(sc(NC(=O)c3ccc(C)cc3)c2C#N)C1 [CBK304411]
52.6

Also check CS(=O)(=O)N(Cc1cc2ccccc2nc1O)CC1CCCO1 (stereo not shown) [CBK269517]
86.1

Also check OCCN1CCN(c2nc(-c3cc(Cl)cc(Cl)c3)cn3ccnc23)CC1 [CBK066558]
94.1

Also check NCc1ccc(CN(Cc2ccc(-c3ccccc3)cc2)C(=O)Nc2ccccc2C(F)(F)F)cc1 [CBK046116C]
86.3

Also check O=C(O)CSc1nnc(-c2sc3ccccc3c2Cl)n1-c1ccccc1 [CBK263830]
92.9

Also check O=C(NC(c1ccc(-c2ccccc2)cc1)c1cnccn1)C1CCN(CCc2ccc(F)cc2)CC1 (stereo not shown) [CBK147981]
92.6

Also check CS(=O)(=O)N1CC2(CCN(CCCOc3ccccc3)CC2)c2ccccc21 [CBK115457T]
106

Also check O=C(Nc1cccc(-c2nc3ncccc3o2)c1)c1cccc(OCc2ccccc2)c1 [CBK263126]
86.2

Also check COc1cc2c(cc1OC)C(c1ccc(C(=O)O)cc1)NCC2 (stereo not shown) [CBK286738]
90.2

Also check COc1ccc(CCNCC2OCCc3cccc(OC)c32)cc1OC (stereo not shown) [CBK024032C]
118

Also check COc1c(C)cccc1C(=O)NC(=S)Nc1sc2c(c1C(N)=O)CCC2 [CBK265587]
84.4

Also check C[C@H](NC1=NC(=O)C2(CCN(Cc3ccccc3)CC2)O1)c1ccccc1 [CBK122798T]
88.6

Also check O=c1n(C(c2ccccc2)c2ccccc2)ccn1S(=O)(=O)c1ccc2ccccc2c1 [CBK106623]
94.6

Also check Cc1cc2cc(C(F)(F)F)nc-2n(CC(=O)NC2CC2)c1 [CBK282888]
106

Also check COc1cccc2sc(NC(=O)CN3CCOCC3)nc12 [CBK149281]
98.8

Also check CC1=C[C@@H](CNC(=O)c2ccccn2)[C@H](C(C)C)C[C@H]1CC(=O)N1CCCC1 [CBK289207]
86.5

Also check CN1C[C@@H](NC(=O)c2ccc(C#N)cc2)C[C@H]1c1nc(-c2ccc(F)cc2)no1 [CBK288865]
92.1

Also check O=C(CSc1cccc2ccccc12)Nc1ccc([N+](=O)[O-])cc1O [CBK268696]
115

----------
- Assay Remarks: in vitro
- Measurement Conditions: human, hela cells, % viability
Task for the reader: assign each of the following compounds its reported viability at 28.5 h, 10 µM.
Could you give me the number in %? Just the number is fine.

Consider the compound shown here: "NS(=O)(=O)c1ccc(CN2CCCC2=O)cc1" What is its recorded viability at 28.5 h, 10 µM?
108

Also check "Cc1ccc2nc(/C(C#N)=C/c3ccc(-c4ccc(S(N)(=O)=O)cc4)o3)[nH]c2c1"
94

Also check Cc1csc(N2CCC(NC3COc4ccc(F)cc4C3)CC2)n1 (stereo not shown)
101

Also check CC(C)(C)OC(=O)N1CCCC(NC(CO)c2ccco2)CC1 (stereo not shown)
101

Also check OCC1CCCN1c1nccnc1-c1cccc(O)c1 (stereo not shown)
109

Also check "COc1ccccc1CC(=O)NCCC(=O)N1CCN(c2ccc(F)cc2)CC1"
87.6

Also check "CCN(Cc1ccccc1)Cc1nc2ccccc2c(=O)[nH]1"
95.6

Also check "O=C(c1ccccc1C(F)(F)F)N1CCC(n2c(=O)[nH]c3ccccc32)CC1"
97

Also check "CCCNC(=O)c1sc(Nc2ccc(Cl)cn2)nc1C"
98.4

Also check CN1CCC(Cc2nc(CC3CCCOC3)n(CC(F)(F)F)n2)CC1 (stereo not shown)
83.2

Taken from paper PMC12040169.
